test system: OVCAR-3 ovarian; assay: NCI tumour cell line growth inhibition, 48 h
Metric: GI50

1) CC[O-].CC[O-].O=S(=O)([O-])c1ccc([O-])c2ncccc12.O=S(=O)([O-])c1ccc([O-])c2ncccc12.[Ti+4]	47.6 µM
2) COc1cc(-c2cn(-c3ccc(Cl)c(Cl)c3)c(=O)n2C(C)=O)cc(OC)c1OC	14.9 µM
3) COc1ccc(C2=NN(C=O)C(c3cccc(Nc4ccnc5cc(Cl)ccc45)c3)C2)cc1 (centres undefined)	1.97 µM
4) Nc1ccccc1C#C/C=C\C#Cc1ccccc1	4.14 µM
5) CCn1c(-c2nonc2N)nc2c(C#CC(C)(C)O)nc(OCCNC)cc21	6.16 µM
6) CN1C(=O)N(C)C2C1NN=c1s/c(=C\c3ccc(F)cc3)c(=O)n12 (centres undefined)	1.24 µM
7) COc1ccccc1/C=C/C(=O)c1ccccc1	5.92 µM
8) CCn1c2ccc(O)cc2c2c(C)c3c[n+](C)ccc3c(C)c21	3.59 µM
9) COc1ccc2cc(-c3c(-c4ccncc4)nc(-c4ccc(S(C)(=O)=O)cc4C)n3C)ccc2c1	6.97 µM
10) COc1cc2c(=O)n(CCN)c3c4cc5c(cc4ccc3c2cc1OC)OCO5	0.919 µM
11) CCOC(=O)/C=C/C1=C(c2cccs2)c2ccccc2CC1	29.5 µM
12) COc1cc(-c2n/c(=C\c3c(O)[nH]c4ccc(Cl)cc34)cc3c2=Nc2ccccc2-3)ccc1F	1.98 µM
13) COc1ccc(Cn2c3c(cc(OS(=O)(=O)C(F)(F)F)c2=O)Cc2ccccc2-3)cc1	5.12 µM
14) Cc1cc(S(=O)(=O)NC#N)c(S/C(=N\Nc2ccc([N+](=O)[O-])cc2)c2ccc(Cl)cc2)cc1Cl	21.2 µM

----------
system: K-562 leukemia; experiment: NCI tumour cell line growth inhibition, 48 h
Known TGI of a selection of compounds
Metric: TGI

1) Cc1cc(C)nc(NS(=O)(=O)c2ccc(Nc3c4ccccc4nc4c(C(=O)N5CCN(CCOS(C)(=O)=O)CC5)cccc34)cc2)n1	> 100 µM
2) Cc1cc2c(cc1C)N(C(=O)CCl)CCN2C(=O)CCl	2 µM
3) CC1C(=O)OCC2=CCN3CCC(OC(=O)C(C)C1(C)O)C23 (configuration not stated)	> 100 µM
4) COC(=O)[C@]12CCC(C)[C@H](C)[C@H]1C1=CCC3[C@@]4(C)CC[C@H](OC(C)=O)C(C)(C)C4CC[C@@]3(C)C1(C)C(O)C2 (some centres not stated)	> 100 µM
5) CS(=O)(=O)CSCSSCS(C)(=O)=O	> 95.5 µM
6) c1ccc2c(c1)Sc1nccc3ccnc-2c13	> 100 µM
7) O=S(=O)(c1cc(Cl)ccc1Cl)n1ccnc1	> 100 µM
8) Fc1cc2[nH]ncc2c2c3c(c(-c4cn[nH]c4C(F)(F)F)nc12)C1CCC3C1 (configuration not stated)	> 50 µM
9) O=C1NC(=S)S/C1=C(/C=C(\CC(=O)c1ccccc1)c1ccc(Cl)cc1)c1ccccc1	> 100 µM
10) COc1ccc(-c2oc3c(OC)c(OC)c(OC)c(OC)c3c(=O)c2OC)cc1OC	> 100 µM
11) COc1ccccc1C1Nn2c(nc3ccccc3c2=O)N1c1ccc(C)cc1 (configuration not stated)	33.8 µM
12) CCOc1ccc(Nc2nc(N)nc(N)c2N)cc1	50.1 µM
13) CN1C(=O)N(C)C2C1NN=c1s/c(=C\c3ccc(F)cc3)c(=O)n12 (configuration not stated)	> 100 µM
14) CN1C(=O)N(C)C(O)C(Cl)(Br)C1=O (configuration not stated)	> 100 µM
15) CC(=O)OCC1OC(n2c(-c3ccccc3)c(N=Nc3ccccc3)c(C)c(C#N)c2=S)C(OC(C)=O)C(OC(C)=O)C1OC(C)=O (configuration not stated)	> 100 µM
16) COc1ccccc1/C=C/C(=O)c1ccccc1	> 100 µM
17) CCOP(=O)(OCC)OC(C#N)c1ccc(-c2ccccc2)cc1 (configuration not stated)	40 µM
18) O=C(CCc1cc(O)cc(O)c1)NCCCNC(=O)CCc1cc(O)cc(O)c1	> 100 µM
19) COC(=O)Cc1ccc2c(cnn2-c2ccccc2)c1OC	> 10 µM
20) NCCCCNc1ccc2c(=O)[nH][nH]c(=O)c2c1	> 100 µM
21) Cc1nc2sccn2c1-c1csc(Nc2cccc(Cl)c2C)n1	> 100 µM
22) N.N.N.N.O=C([O-])C(Cl)Cl.O=C([O-])C(Cl)Cl.[Co+3].[O-][Cl+3]([O-])([O-])[O-]	> 100 µM
